- TGT: Recombinant human NK3 (hNK3) receptor (Homo sapiens)
- Construct: expressed in transfected cells
- MEASUREMENT_NOTES: NK3 receptor affinity, [3H]SR142801 binding
- RUN_CONDITIONS: hNK3 receptor membranes, [3H]SR142801 0.3 nM; read-out: pki NK3 (converted)
- Experimental: Recombinant human NK3 (hNK3) receptor affinity was determined in a 96 well plate assay, using [^3H]SR142801 (final concentration 0.3 nM) to radiolabel the hNK3 receptor in the presence of 10 concentrations of competing compound or buffer. Non specific binding was determined using 10 μM SB222200. Assay buffer consisted of Tris-HCl (50 mM, pH 7.4), BSA (0.1%), MnCl2 (4 mM) and phosphoramidon (1 μM). […]
Form field: Ki (one value per entry).
Give the quantity in nM, number only.

The molecule listed as CN(C(=O)C(C)(C)c1cc(C(F)(F)F)cc(C(F)(F)F)c1)c1cnc(OC(CO)CO)cc1-c1ccccc1Cl shows Ki equal to 9.12

---

- TGT: human NK1 receptor (Homo sapiens)
- Sequence (P25103 whole entry): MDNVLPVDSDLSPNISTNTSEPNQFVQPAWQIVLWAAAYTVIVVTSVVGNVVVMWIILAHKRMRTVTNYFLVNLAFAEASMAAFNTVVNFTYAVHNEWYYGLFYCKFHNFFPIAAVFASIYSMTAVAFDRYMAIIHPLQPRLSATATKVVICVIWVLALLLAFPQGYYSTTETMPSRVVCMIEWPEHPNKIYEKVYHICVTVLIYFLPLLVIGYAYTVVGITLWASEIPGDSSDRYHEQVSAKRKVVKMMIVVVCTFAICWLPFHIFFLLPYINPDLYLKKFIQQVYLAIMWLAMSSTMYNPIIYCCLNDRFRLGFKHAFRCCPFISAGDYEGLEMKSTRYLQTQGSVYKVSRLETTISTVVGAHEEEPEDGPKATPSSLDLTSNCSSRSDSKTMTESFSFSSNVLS
- MEASUREMENT_NOTES: NK1 receptor affinity, [3H]substance P binding
- RUN_CONDITIONS: human NK1 receptors in CHO cells, [3H]substance P 0.6 nM; read-out: pki NK1 (converted)
PROPERTY_LABEL: Ki (nM)
Give the quantity in nM, number only.

Sample answers from the record:
# COMPOUND, UNIT_OF_MEASURE, Ki
records = [
    ("Cc1cc(F)ccc1-c1cc(-c2ccnc(CO)c2)ncc1N(C)C(=O)C(C)(C)c1cc(C(F)(F)F)cc(C(F)(F)F)c1", "nM", 1.55),
    ("CC(=O)N1CCCC(c2cc(-c3ccc(F)cc3C)c(N(C)C(=O)C(C)(C)c3cc(C(F)(F)F)cc(C(F)(F)F)c3)cn2)C1 (racemic)", "nM", 1.62),
]

Now turn to the next compound.
Given the compound Cc1cc(F)ccc1-c1cc(-c2cncc(CO)c2)ncc1N(C)C(=O)C(C)(C)c1cc(C(F)(F)F)cc(C(F)(F)F)c1 and test system human NK1 receptor (Homo sapiens), the measured Ki is 1.82

---

Form field: Ki (one value per entry).
- TGT: human NK1 receptor (Homo sapiens)
- MEASUREMENT_NOTES: NK1 receptor affinity, [3H]substance P binding
- RUN_CONDITIONS: human NK1 receptors in CHO cells, [3H]substance P 0.6 nM; read-out: pki NK1 (converted)
Give the quantity in nM, number only.

# COMPOUND, PROPERTY_LABEL, OBS_VALUE
measured = [
    ("Cc1cc(F)ccc1-c1cc(C2CCS(=O)(=O)CC2)ncc1N(C)C(=O)C(C)(C)c1cc(C(F)(F)F)cc(C(F)(F)F)c1 [Example 16]", "Ki", 1.38),
]

Given the compound Cc1cc(F)ccc1-c1cc(-c2cccc(CO)c2)ncc1N(C)C(=O)C(C)(C)c1cc(C(F)(F)F)cc(C(F)(F)F)c1 [Example 7] and test system human NK1 receptor (Homo sapiens), the measured Ki is 1.2

Given the compound Cc1cc(F)ccc1-c1cc(C2=CCSCC2)ncc1N(C)C(=O)C(C)(C)c1cc(C(F)(F)F)cc(C(F)(F)F)c1 [Example 14] and test system human NK1 receptor (Homo sapiens), the measured Ki is 1.15

---

- TGT: Recombinant human NK3 (hNK3) receptor (Homo sapiens, UniProt P29371)
- Construct: expressed in transfected cells
- Sequence (P29371 whole entry): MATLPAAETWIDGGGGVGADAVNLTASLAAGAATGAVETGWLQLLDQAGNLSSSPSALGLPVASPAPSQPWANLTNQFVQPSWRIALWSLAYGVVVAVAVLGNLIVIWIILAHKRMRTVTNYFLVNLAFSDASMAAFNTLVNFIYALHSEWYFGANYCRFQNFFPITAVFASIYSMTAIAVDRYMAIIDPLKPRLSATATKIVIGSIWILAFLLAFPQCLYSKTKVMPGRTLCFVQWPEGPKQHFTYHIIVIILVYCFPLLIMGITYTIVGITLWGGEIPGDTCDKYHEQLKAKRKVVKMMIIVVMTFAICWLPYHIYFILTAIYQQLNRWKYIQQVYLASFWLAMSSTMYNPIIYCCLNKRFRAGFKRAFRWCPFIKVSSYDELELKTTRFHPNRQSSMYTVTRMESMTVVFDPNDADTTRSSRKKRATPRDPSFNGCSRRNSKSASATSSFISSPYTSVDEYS
- MEASUREMENT_NOTES: NK3 receptor affinity, [3H]SR142801 binding
- RUN_CONDITIONS: hNK3 receptor membranes, [3H]SR142801 0.3 nM; read-out: pki NK3 (converted)
Form field: Ki (one value per entry).
Give the number first and the unit second.

# SMILES_DATA, TGT, Ki
rows = [
    ("Cc1cc(F)ccc1-c1cc(-c2cccnc2)ncc1N(C)C(=O)C(C)(C)c1cc(C(F)(F)F)cc(C(F)(F)F)c1", "Recombinant human NK3 (hNK3) receptor (Homo sapiens, UniProt P29371)", "16.2 nM"),
]

The compound listed as Cc1cc(F)ccc1-c1cc(SCCO)ncc1N(C)C(=O)C(C)(C)c1cc(C(F)(F)F)cc(C(F)(F)F)c1 shows Ki equal to 8.51 nM

The compound listed as Cc1cc(F)ccc1-c1cc(C2=CCS(=O)(=O)CC2)ncc1N(C)C(=O)C(C)(C)c1cc(C(F)(F)F)cc(C(F)(F)F)c1 shows Ki equal to 6.76 nM
